MEASURED_TARGET: Aminopeptidase N (Plasmodium falciparum (isolate 3D7)) (UniProt O96935)
Sequence (O96935 whole entry, looked up): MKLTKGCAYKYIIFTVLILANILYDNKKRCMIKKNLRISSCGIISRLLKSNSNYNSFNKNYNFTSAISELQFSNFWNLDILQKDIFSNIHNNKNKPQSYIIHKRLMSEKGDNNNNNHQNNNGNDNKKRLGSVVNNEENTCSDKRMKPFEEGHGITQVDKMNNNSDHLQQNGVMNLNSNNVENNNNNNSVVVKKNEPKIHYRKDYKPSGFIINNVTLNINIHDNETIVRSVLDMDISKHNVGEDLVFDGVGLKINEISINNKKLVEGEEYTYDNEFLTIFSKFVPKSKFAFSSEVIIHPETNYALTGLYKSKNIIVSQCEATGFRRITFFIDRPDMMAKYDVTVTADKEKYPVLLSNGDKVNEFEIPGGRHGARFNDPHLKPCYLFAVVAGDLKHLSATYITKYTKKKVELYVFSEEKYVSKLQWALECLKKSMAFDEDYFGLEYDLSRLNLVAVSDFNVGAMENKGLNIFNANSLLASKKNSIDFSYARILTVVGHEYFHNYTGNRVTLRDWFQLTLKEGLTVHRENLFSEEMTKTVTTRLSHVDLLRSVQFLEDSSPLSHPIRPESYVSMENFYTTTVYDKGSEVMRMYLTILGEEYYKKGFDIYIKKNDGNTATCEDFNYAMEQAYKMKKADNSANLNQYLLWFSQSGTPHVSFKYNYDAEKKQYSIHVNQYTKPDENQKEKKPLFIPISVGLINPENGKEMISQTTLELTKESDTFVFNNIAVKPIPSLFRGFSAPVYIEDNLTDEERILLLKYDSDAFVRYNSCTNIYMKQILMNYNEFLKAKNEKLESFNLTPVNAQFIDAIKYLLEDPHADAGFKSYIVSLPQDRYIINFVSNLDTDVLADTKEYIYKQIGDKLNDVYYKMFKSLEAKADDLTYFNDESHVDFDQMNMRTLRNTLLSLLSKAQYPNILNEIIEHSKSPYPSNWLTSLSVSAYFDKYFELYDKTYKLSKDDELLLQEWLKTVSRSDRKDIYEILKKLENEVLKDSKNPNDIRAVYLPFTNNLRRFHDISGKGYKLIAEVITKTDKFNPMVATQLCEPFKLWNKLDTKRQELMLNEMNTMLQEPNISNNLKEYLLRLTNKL
ASSAY_INFO: malaria alanyl aminopeptidase activity blockers – biochemical, fluorogenic H-Leu-NHMec substrate, 1536-well (AID 1445)
CONDITION_CONTEXT: recombinant M1AAP, H-Leu-NHMec fluorogenic kinetic assay; at 30 µM
The campaign covered roughly 220,000 compounds. About 910 (0.41%) were called active.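 Rule for the calls: active = primary inhibition above the hit cutoff, then over 50% inhibition at one or more dose response concentrations (cut at about 23% in these data, passing the limit was not always enough); inconclusive = conflicting primary data, or primary hits not chosen for dose response; inactive = low primary inhibition, or under 50% at every dose.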 The sample holds actives, similar compounds and a random draw of the others, so the mix is not that of the screen. Potency and affinity values are given separately.
Use one of these outcomes when replying: active, inactive

1) Cc1cccc(C(=O)NNC(=O)c2ccc(Cl)cc2)c1O	active

Prompt line: GET /call?item= Cc1nc(-c2cccc(NS(=O)(=O)c3ccc4ccccc4c3)c2)cs1 returns the recorded outcome of this test.
Response line: inactive

Prompt line: GET /call?item= Cn1ncc(Br)c1C(=O)Nc1ccc(Br)cn1 returns the recorded outcome of this test.
Response line: inactive

Prompt line: GET /call?item= CC(=O)Nc1cccc(/C(C)=N/NC(=O)c2cc(-c3ccncc3)nc3ccccc23)c1 returns the recorded outcome of this test.
Response line: inactive

Prompt line: GET /call?item= COCCN(C(=O)c1csnn1)C(C(=O)NC1CCCCC1)c1sccc1C (centres undefined) returns the recorded outcome of this test.
Response line: inactive

Prompt line: GET /call?item= CC(C)C1C(C#N)=C(N)Oc2n[nH]c(-c3cccs3)c21 (centres undefined) returns the recorded outcome of this test.
Response line: inactive

Prompt line: GET /call?item= COCCCNC(=O)Cn1nnc(-c2ccc(NC(=O)c3ccccc3F)cc2)n1 returns the recorded outcome of this test.
Response line: inactive

Prompt line: GET /call?item= COC(=O)c1ccccc1NC(=O)CNC(=O)c1ccco1 returns the recorded outcome of this test.
Response line: inactive

Prompt line: GET /call?item= COc1ccc(NC(=S)NCc2ccccn2)cc1OC returns the recorded outcome of this test.
Response line: inactive

Prompt line: GET /call?item= O=C(N/N=C\c1ccc[nH]1)C1COc2ccccc2O1 (centres undefined) returns the recorded outcome of this test.
Response line: inactive

Prompt line: GET /call?item= CCc1nn(CCCC(=O)N2CCc3ccccc3C2)c(=O)c2cc3occc3n12 returns the recorded outcome of this test.
Response line: active

Prompt line: GET /call?item= Cc1ccc(C(C(=O)NC2CCCCC2)N(C(=O)c2csnn2)C2CC2)o1 (centres undefined) returns the recorded outcome of this test.
Response line: inactive

Prompt line: GET /call?item= c1ccc(OCc2nn3c(-c4ccco4)nnc3s2)cc1 returns the recorded outcome of this test.
Response line: inactive

Prompt line: GET /call?item= COc1ccccc1C(=O)NNC(=O)c1ccc(Cl)cc1 returns the recorded outcome of this test.
Response line: inactive

Prompt line: GET /call?item= CCN1C(=O)C2(C(C(=O)c3cc4ccccc4o3)=C(O)C(=O)N2CCCN2CCOCC2)c2ccccc21 (centres undefined) returns the recorded outcome of this test.
Response line: inactive

Prompt line: GET /call?item= Oc1ccc(C2C(c3ccccc3)=NN=C(c3ccc(Cl)cc3)N2O)c(O)c1 (centres undefined) returns the recorded outcome of this test.
Response line: inactive

Prompt line: GET /call?item= C[N+]1(CC(=O)OC2CCCCCCCCCCC2)CCCC1 returns the recorded outcome of this test.
Response line: inactive

Prompt line: GET /call?item= O=C(OC1CCOC1=O)c1ccc(Cl)c(S(=O)(=O)N2CCCCC2)c1 (centres undefined) returns the recorded outcome of this test.
Response line: inactive

Prompt line: GET /call?item= COc1ccc(NC(=O)C2CCN(S(C)(=O)=O)CC2)cc1Cl returns the recorded outcome of this test.
Response line: inactive

Prompt line: GET /call?item= COc1ccc(NC(=O)Cn2nnc(C(=O)NCCc3ccc(OC)c(OC)c3)c2N)c(OC)c1 returns the recorded outcome of this test.
Response line: inactive

# credit: PubChem BioAssay AID1445
